Here, each record is paired with measured fold (KD vs average of 4 runs of L1A2) data.
molecular target: Clade C DU172.17 gp120 protein (HIV-1 Clade C, DU172.17); experiment: BLI (Octet), IgG on anti-hIgG Fc sensor, gp120 analyte, 1:1 fit
MEASURED ENDPOINT: fold (KD vs average of 4 runs of L1A2) (fold)

• NglycoND (antibody, V domains shown) VH: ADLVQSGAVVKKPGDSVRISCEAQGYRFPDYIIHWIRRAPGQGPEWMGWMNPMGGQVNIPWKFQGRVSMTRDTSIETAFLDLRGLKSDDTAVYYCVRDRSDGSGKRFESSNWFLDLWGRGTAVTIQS VL: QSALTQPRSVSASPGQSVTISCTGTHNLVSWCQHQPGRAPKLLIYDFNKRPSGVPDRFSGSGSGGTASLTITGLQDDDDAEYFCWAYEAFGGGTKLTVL = 14.5
• Germ12 (antibody, V domains shown) VH: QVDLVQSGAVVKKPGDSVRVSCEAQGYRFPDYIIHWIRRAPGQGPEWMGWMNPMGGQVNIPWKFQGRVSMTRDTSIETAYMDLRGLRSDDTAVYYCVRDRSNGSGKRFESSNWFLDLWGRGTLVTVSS VL: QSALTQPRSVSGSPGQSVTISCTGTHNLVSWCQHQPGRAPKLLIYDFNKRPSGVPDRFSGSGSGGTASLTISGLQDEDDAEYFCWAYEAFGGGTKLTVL = 0.85
• Germ6 (antibody, V domains shown) VH: ADLVQSGAVVKKPGDSVRVSCEAQGYRFPDYIIHWIRRAPGQGPEWMGWMNPMGGQVNIPWKFQGRVSMTRDTSIETAYLDLRGLKSDDTAVYYCVRDRSNGSGKRFESSNWFLDLWGRGTAVTVQS VL: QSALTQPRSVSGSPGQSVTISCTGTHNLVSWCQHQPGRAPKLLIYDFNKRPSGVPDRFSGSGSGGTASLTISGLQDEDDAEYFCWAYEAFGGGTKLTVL = 0.76
